Examples of sequences with documented HRG-induced Akt activation (log2) follow.
- Test system: MCF7
- ASSAY NOTES: HRG-induced Akt activation (dPAkt = log2 pAkt/Akt HRG-stimulated minus log2 pAkt/Akt basal) (log2 ratio difference); higher = stronger HRG-induced Akt(T308) phosphorylation
- APPLIED CONDITIONS: miRNA mimic concentration 10 nM; time after transfection 72 h; heregulin 10 ng/ml; stimulation time 1 h
Respond using a number only.

Field: example entries. Status: answers known.
SEQUENCE: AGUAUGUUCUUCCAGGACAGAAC
HRG-induced Akt activation (log2): 1.83
--
SEQUENCE: UCACACCUGCCUCGCCCCCC
HRG-induced Akt activation (log2): 1.05
--
SEQUENCE: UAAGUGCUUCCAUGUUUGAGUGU
HRG-induced Akt activation (log2): 1.17
--
SEQUENCE: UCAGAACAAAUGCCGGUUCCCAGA
HRG-induced Akt activation (log2): 1.23
--
SEQUENCE: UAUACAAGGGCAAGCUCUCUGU
HRG-induced Akt activation (log2): 1.05
--
SEQUENCE: UAUGUCUGCUGACCAUCACCUU
HRG-induced Akt activation (log2): 2.32
--
SEQUENCE: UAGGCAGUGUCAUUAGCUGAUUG
HRG-induced Akt activation (log2): 1.69
--
SEQUENCE: GACUGACACCUCUUUGGGUGAA
HRG-induced Akt activation (log2): 1.49

Query :: Would you kindly share the measured HRG-induced Akt activation (log2) for ACGGUGCUGGAUGUGGCCUUU ?
Result :: 1.92

Query :: And the next one, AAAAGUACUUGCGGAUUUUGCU ?
Result :: 1.58

The origin of these recorded values is the supplement of paper PMC4314810.
